# Tested on: Staphylococcus aureus S13E
# Type: cell-based
# Experimental: The formula I compounds have in vitro and in vivo activity against Gram-positive pathogenic bacteria. The MIC's were determined using a standard agar-dilution assays.
Value Kind: MIC (µg/mL)
Give bare numbers, in µg/mL.

The compound listed as CN[C@H](CC(C)C)C(=O)N[C@H]1C(=O)N[C@@H](CC(N)=O)C(=O)N[C@H]2C(=O)N[C@H]3C(=O)N[C@H](C(=O)N[C@H](C(=O)O)c4cc(O)cc(O)c4-c4cc3ccc4O)[C@H](O[C@H]3C[C@](C)(N)[C@@H](O)[C@H](C)O3)c3ccc(cc3)Oc3cc2cc(c3O[C@@H]2O[C@H](CO)[C@@H](O)[C@H](O)[C@H]2O[C@H]2C[C@](C)(NCc3ccc(Br)cc3)[C@@H](O)[C@H](C)O2)Oc2ccc(cc2Cl)[C@H]1O shows MIC equal to 1
